# TARGET OF ASSAY: T1, full length cyno PD-L1 on cells (cyno, UniProt G7PSE7 19-290)
# T1 construct: also called CHO-K1-cPD-L1
# T1 sequence (G7PSE7 entry or part of it limits assumed): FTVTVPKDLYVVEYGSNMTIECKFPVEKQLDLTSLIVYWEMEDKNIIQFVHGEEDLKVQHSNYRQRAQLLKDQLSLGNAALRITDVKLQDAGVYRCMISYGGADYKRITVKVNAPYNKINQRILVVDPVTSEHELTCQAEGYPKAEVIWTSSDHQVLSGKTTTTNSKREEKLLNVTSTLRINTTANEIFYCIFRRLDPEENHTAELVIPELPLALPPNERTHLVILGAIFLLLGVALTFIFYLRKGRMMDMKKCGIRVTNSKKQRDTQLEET
# MEASUREMENT DESCRIPTION: FACS CHO-K1-cPD-L1, 100.00 nM mAb
METRIC NAME: Mean fluorescence intensity
Answer field: number only, no words.

Would you please look over these solved cases?
>  <BINDER>
chimeric anti-PD-L1 antibody 78A11F6 (antibody, V domains shown, Purified from hybridoma of Harbour H2L2 mice: human variable regions, rat constant regions) VH: EVQLVESGGGLVQPGGSLRLSCAASGITFSSYWMSWVRQTPGKGLEWVANIKQDGSEKYYVKSVKGRFTISRDNAKNSLYLQMNSLRAEDTAVYYCVRDRAVPGTGAFDIWGQGTMVIVSS VL: DIQMTQSPSTLSASVGDRVTITCRASQSISNWLAWYQQKPGKAPKLLIYKASSLESGVPSRFSGSGSGTEFTLTISSLQPDDFATYYCQQYDSSLFTFGQGTKLEIK

>  <Mean fluorescence intensity>
144

$$$$
>  <BINDER>
chimeric anti-PD-L1 antibody 73D3G2 (antibody, V domains shown, Purified from hybridoma of Harbour H2L2 mice: human variable regions, rat constant regions) VH: EVQLVESGGGLVQPGGSLRLSCAASGFTFNTYWMNWVRQAPGRGLEWVANIKQDGGEKYYVDSVKGRFTISRDNAKNSLYLQMNSLRAEDTAMYYCARDGRSWYPDAFDIWGQGTVVTVSS VL: DIQMTQSPSTLSASVGDRVTITCRASQSISTWLAWYQQKLGKAPKLLIYEVSILESGVPSRFSGSGSGTEFTLTISSLQPDDFATYYCQQYHSFSSFGGGTRVEIK

>  <Mean fluorescence intensity>
137

$$$$
>  <BINDER>
chimeric anti-PD-L1 antibody 105C5D7 (antibody, V domains shown, Purified from hybridoma of Harbour H2L2 mice: human variable regions, rat constant regions) VH: EVQLVESGGGLVQPGGSLRLSCAASGFTFSSYWMSWVRQAPGKGLEWVANIKQDGNEKYYVDSVKGRFTISRDNAKNSLYLQMNSLRAEDTAVYYCARNIKWGDAFDIWGQGTMVTVSS VL: DIQMTQSPSSLSASVGDRVTITCRASQSISSYLNWYQQKPGKAPKLLIYAASSLQSGVPSRFSGSGSGTDFTLTISSLQPEDFAIYSCQQSYSIPLTFGGGTKVEIK

>  <Mean fluorescence intensity>
120

$$$$

// next entry
For chimeric anti-PD-L1 antibody 127D2F3 (antibody, V domains shown, Purified from hybridoma of Harbour H2L2 mice: human variable regions, rat constant regions) VH: EVQLVESGGGLVQPGGSLRLSCVASGFTFSSYWMSWVRQAPGKGLEWVANIKQDGSEKYYVDSVKGRLTISRDNAKNSLYLQMKSLRAEDTAVYYCARDPIYSSYFDYWGQGILVTVSS VL: DIQMTQSPSSLSASVGDRVTITCRASQSISNYLNWYQQKPGKAPKLLIYAASSLQSGVPSRFSGSGSGTDFTLTISSLQPEDFAAYYCQQSYGIPFTFGPGTKVDIK the binder record lists Mean fluorescence intensity as 117
